The values you see were collected from PubChem BioAssay AID1845200.

For each of the compounds below, state its viability, T/C.
test system: ASPS-1 complex tumor spheroids, viability; assay: Anticancer human tumor ASPS-1 cell line growth inhibition; details: second compound 0.003 µM; first compound 0.0949 µM; hits give low values;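 further: spheroids exposed to agents for 7 days after 3 days of growth; 100% = DMSO vehicle treated spheroids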
One number for each entry, in %.

Known viability, T/C results, listed for orientation:
>>> value_reported("Cn1ncnc1[C@H]1c2n[nH]c(=O)c3cc(F)cc(c23)N[C@@H]1c1ccc(F)cc1 + CC[C@@]1(O)C(=O)OCc2c1cc1n(c2=O)Cc2cc3c(CN(C)C)c(O)ccc3nc2-1")
101
>>> value_reported("Cn1ncnc1[C@H]1c2n[nH]c(=O)c3cc(F)cc(c23)N[C@@H]1c1ccc(F)cc1 + COc1cc2c(cc1O)CCNC21CSC2c3c(OC(C)=O)c(C)c4c(c3C(COC1=O)N1C(O)C3Cc5cc(C)c(OC)c(O)c5C(C21)N3C)OCO4")
19.4
>>> value_reported("CNCc1ccc(-c2cc(-c3nc(-c4ccc(S(=O)(=O)C(C)C)cc4)cnc3N)on2)cc1 + COc1cc2c(cc1O)CCNC21CSC2c3c(OC(C)=O)c(C)c4c(c3C(COC1=O)N1C(O)C3Cc5cc(C)c(OC)c(O)c5C(C21)N3C)OCO4")
15.2
>>> value_reported("O=C(c1cc(Cc2n[nH]c(=O)c3ccccc23)ccc1F)N1CCN(C(=O)C2CC2)CC1 + CC[C@@]1(O)C(=O)OCc2c1cc1n(c2=O)Cc2cc3c(CN(C)C)c(O)ccc3nc2-1")
114

For the next question, use this compound.
Fetch value of viability, T/C on ASPS-1 complex tumor spheroids, viability for O=C(c1cc(Cc2n[nH]c(=O)c3ccccc23)ccc1F)N1CCN(C(=O)C2CC2)CC1 + COc1cc2c(cc1O)CCNC21CSC2c3c(OC(C)=O)c(C)c4c(c3C(COC1=O)N1C(O)C3Cc5cc(C)c(OC)c(O)c5C(C21)N3C)OCO4 .
21.6

====

What viability, T/C was measured for each of the following?
test system: ASPS-1 complex tumor spheroids, viability; test: Anticancer human tumor ASPS-1 cell line growth inhibition; conditions: second compound 0.003 µM; first compound 0.3 µM; hits give low values;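 further: spheroids exposed to agents for 7 days after 3 days of growth; 100% = DMSO vehicle treated spheroids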
One number for each entry, in %.

>>> value_reported("CNCc1ccc(-c2cc(-c3nc(-c4ccc(S(=O)(=O)C(C)C)cc4)cnc3N)on2)cc1 + CC[C@@]1(O)C(=O)OCc2c1cc1n(c2=O)Cc2cc3c(CN(C)C)c(O)ccc3nc2-1")
60.8
>>> value_reported("O=C(c1cc(Cc2n[nH]c(=O)c3ccccc23)ccc1F)N1CCN(C(=O)C2CC2)CC1 + COc1cc2c(cc1O)CCNC21CSC2c3c(OC(C)=O)c(C)c4c(c3C(COC1=O)N1C(O)C3Cc5cc(C)c(OC)c(O)c5C(C21)N3C)OCO4")
22.4
>>> value_reported("Cn1ncnc1[C@H]1c2n[nH]c(=O)c3cc(F)cc(c23)N[C@@H]1c1ccc(F)cc1 + COc1cc2c(cc1O)CCNC21CSC2c3c(OC(C)=O)c(C)c4c(c3C(COC1=O)N1C(O)C3Cc5cc(C)c(OC)c(O)c5C(C21)N3C)OCO4")
16.6

Dear colleague, could you please provide viability, T/C for the compounds listed below?
1. Cc1sc2c(c1C)C(c1ccc(Cl)cc1)=NC(CC(=O)Nc1ccc(O)cc1)c1nnc(C)n1-2 (stereo not given) + CC[C@@]1(O)C(=O)OCc2c1cc1n(c2=O)Cc2cc3c(CN(C)C)c(O)ccc3nc2-1
2. Cn1ncnc1[C@H]1c2n[nH]c(=O)c3cc(F)cc(c23)N[C@@H]1c1ccc(F)cc1 + CC[C@@]1(O)C(=O)OCc2c1cc1n(c2=O)Cc2cc3c(CN(C)C)c(O)ccc3nc2-1

1. 107
2. 98.4
